Reported melting point values are given for each entry in this list.

Please review the following examples before continuing.
* CC1(C)[C@H](C(=O)OCc2cnc(Cc3ccccc3)s2)[C@@H]1C=C(Br)Br | 66 °C
* COc1cc2c(cc1O)C(=O)CCCC2 | 115 to 116 °C
* COC(=S)c1cc(F)c(-c2ccccc2)nc1Nc1ccc(F)cc1F | 128 °C
* O=S(=O)(NCc1ccc(Cl)cc1)c1c[nH]cn1 | 196 to 198 °C
* O=C1CC(C(=O)O)C2(CCCCC2)C1 (stereo not drawn) | 146 to 147 °C

Request: Hello, please tell me recorded melting point for this one: "Fc1cccc(CSc2nnc(-c3ncnc4[nH]ccc34)o2)c1"
Response: 182 to 183 °C

Request: For the molecule CCC(C(=O)N(CC)CC)n1cc(Cl)c(-c2ccccc2)n1 (stereo not drawn) , give its reported melting point.
Response: 47 to 49 °C

Request: Return melting point (reported value) for this molecule: "O=c1cc(-c2nnn[nH]2)oc2c(/C=C/c3ccc(OCCCCc4ccc(F)cc4)cc3)cccc12"
Response: 174 to 175 °C

----------
Property: melting point

Study these solved cases before continuing.
- Cc1cc(C)c(N)nn1: 123 to 126 °C
- CC(=O)Nc1nc(N)c2ncn(C3OC(C(O)C(=O)O)C(O)C3O)c2n1 (configuration not stated): 295 °C
- COc1ccc(N2CCN(CC(O)COc3cccc4cc(C(C)=O)oc34)CC2)cc1 (configuration not stated): 173 to 175 °C
- CC(C)COC(=O)Sc1ccc(-c2ccc(C(CCl)NC(=O)c3c(F)cccc3F)cc2)cc1 (racemic): 171 to 173 °C
- COc1ccc(C2CC(=O)N(C(N)=O)N2Cc2ccccc2)cc1OC1CCCC1 (configuration not stated): 148 to 149 °C
- COc1c(Cl)cc2nc3c(=O)[nH][nH]c(=O)c3c(O)c2c1Cl: 210 to 211 °C
- O=C(Nc1cccc2c1C1CCCCN1C2=O)Nc1ncccc1Br (configuration not stated): 220 °C
- O=C1CC(c2ccccc2)Oc2cc(OCCn3ccnc3)ccc21 (configuration not stated): 139 to 140 °C
- C[C@](O)(COc1ccc(C#N)cc1)C(=O)Nc1ccc(C#N)c(Cl)c1: 103 to 105 °C
- Cc1cc(C(=O)O)ccc1NC(=O)C(CS)Cc1ccccc1 (configuration not stated): 217 to 218 °C

Request: Give recorded melting point. "CC(C)(C)c1cc(CSCN(O)CSCc2cc(C(C)(C)C)c(O)c(C(C)(C)C)c2)cc(C(C)(C)C)c1O"
Response: 98 to 101 °C

Request: State its melting point for this molecule: "Cc1cc(OC(=O)N(C)SSC(C)(C)C)cc(C)c1N=Cc1ccccc1O"
Response: 121 to 124 °C

----------
Property: melting point

Please review the entries below; each comes with its answer.
* CC=C1C(=O)N2C(C(=O)OCc3ccc([N+](=O)[O-])cc3)=C(SCCNC(=O)OCc3ccc([N+](=O)[O-])cc3)CC12 (stereo not drawn) | 160 to 161 °C
* Nc1nccc(C=Cc2ccccn2)c1[N+](=O)[O-] | 161 to 163 °C

// below: melting point requested for another compound
Request: Tell me its melting point given "COC(=O)C(=O)Oc1cc(-n2c(=O)cc(C(F)(F)F)n(C)c2=O)c(F)cc1Cl" as the entry.
Response: 103 to 105 °C

----------
Here the recorded melting point is given for each entry.

Below, 3 compounds whose answers are already recorded.
• O=P(O)(O)C1(P(=O)(O)O)CCN2C=CC=CC2=N1 = 80 °C
• Cc1ccc([N+](=O)[O-])c(-c2nc(C(F)(F)F)cs2)c1 = 98 to 104 °C
• CCOC(=O)C(=O)Nc1ncccc1C#N = 95 to 97 °C

# ---- query compound ----
Request: Provide one value: measured melting point of "CCNC(=O)Nc1nc2cc(-c3cccnc3)cc(OCCN(C)C)n2n1"
Response: 200 to 202 °C

----------
Property: melting point

• CC(=O)c1ccc(S(=O)(=O)N2CCCC(CO)C2)cc1 (stereo not drawn) = 104 to 106 °C
• CCCn1c(=O)c2ccc(NC(=O)CC3CCCC3)cc2n1Cc1ccc(C(=O)OC)cc1OC = 74.5 to 77 °C
• COc1cc2c(cc1OC)CC(=S)N(CCCN(C)C1CCc3cc(OC)c(OC)cc3C1)CC2 (stereo not drawn) = 70 to 75 °C
• CCOC(=O)C(CC)Oc1ccc2c(-c3ccc(Cl)cc3)noc2c1 (stereo not drawn) = 73 °C

Request: Provide measured melting point value, entry: "COc1ccc(-c2coc3ccc(C(=O)NN)cc23)cc1"
Response: 184 to 185 °C

----------
Property: melting point

- CC(=O)N1[C@@H](C(=O)O)C(C)(C)S[C@H]1c1ccccc1: 216 to 217 °C
- Cc1ccc(C=Cc2cccc(C#N)n2)cc1: 137 to 138 °C
- CCOC(=O)c1ccc(N2CCC(NCC(O)COc3ccc(N)nc3)CC2)nc1 (centres undefined): 120 to 122 °C
- Clc1ccc(-n2ncc3c2-c2ccccc2C3)cc1: 128 to 129 °C

Request: Read the entry "CC(=O)c1cc(F)c(N)c(C#N)c1F" and write its reported melting point.
Response: 182 to 184 °C

Request: Please look at this compound and report its melting point: "CCOC(=O)C(CBr)=C1CC(=O)CCC1=N"
Response: 170 to 175 °C

Request: Entry CC(C)(C)OC(=O)NC(COCc1ccccc1)c1nc2c(C(F)(F)F)cccc2c(O)c1C(=O)Nc1nccs1 (centres undefined) needs its melting point filled in; supply it.
Response: 208 °C

Request: Fill in melting point for record "CCOc1ccc2c(Nc3ccc(Cl)cc3F)c(C#N)cnc2c1"
Response: 221 to 224 °C

Request: Give the value of melting point reported for the following: CCC1c2cccn2-c2ccc(C(F)(F)F)cc2N1S(=O)(=O)c1ccc(OC)c(Cl)c1 (centres undefined)
Response: 126 to 129 °C

----------
Catalogue of melting point values

The examples below pair each entry with its known result.
- COC(=O)c1cccc2nc(SCCCN3CCCN(CC(=O)Nc4c(C(C)C)cccc4C(C)C)CC3)oc12: 83 to 85 °C
- CN(C(=O)Cc1ccc([N+](=O)[O-])cc1)C1c2ccccc2CCC1N1CCCC1 (stereo not drawn): 135 °C
- CS(=O)c1ccc(C2CCCC(=O)N2c2ccc(Cl)cc2)cc1 (stereo not drawn): 142 to 165 °C
- O=C1c2cc(Cl)ccc2-n2cncc2[C@@H]2CCCN12: 216 to 217 °C

Request: Using known records, supply melting point for CC(C)NCC(O)COc1cccc2c1SCCC2 (stereo not drawn)
Response: 91 to 92 °C

Request: Supply measured melting point of "CCOC(=O)c1c(Cn2cncn2)nc2sc3c(c2c1-c1ccc(OC)c(OC)c1)CCN(C(=O)c1ccccc1)C3" in your reply.
Response: 193 to 194 °C

Request: Give the measured melting point for "CCOC(=O)c1cn(CC)nc1OCc1ccc(OCc2nc(-c3ccco3)oc2C)c(OC)c1"
Response: 114 to 115 °C

Request: Determine its reported melting point: "O=C(Nc1cccc2c1C(=O)c1c-2n[nH]c1[C@H]1CC[C@H](C(=O)N2CCNCC2)CC1)NN1CCOCC1"
Response: 247 to 248 °C

----------
Property: melting point

Some solved cases for reference:
• Cc1ccc(C(=O)N2CCOCC2)cc1[N+](=O)[O-] = 108 to 110 °C
• CN(C)c1cc2c(=O)n(NS(C)(=O)=O)c(=O)[nH]c2cc1C(F)(F)F = 254 to 272 °C
• Clc1ccc2c(C3=CCN(CCNc4ccccn4)CC3)c[nH]c2c1 = 217 to 219 °C

Request: Specify melting point for "CC(=O)CN1CCc2ccc(C(=O)CCC(=O)N3CCC(c4ccc(Cl)cc4)CC3)cc2CC1" and stop.
Response: 119 to 120 °C

Request: Provide measured melting point value, entry: "CC(=O)c1ccc(-n2c(C)ccc2-c2ccc(S(C)(=O)=O)cc2)cc1"
Response: 179 to 180 °C

Request: Supply reported melting point belonging to this compound: CC(=O)Nc1nc2c(ncn2COCC(COC(C)=O)OC(C)=O)c(=O)[nH]1 (centres undefined)
Response: 162 to 165 °C

Request: Identify measured melting point corresponding to "CC(=O)Nc1ccc(OCCOC(=O)CCCNC(=O)c2cc(OCc3ccccc3)ccc2OCc2ccccc2)cc1"
Response: 141 to 143 °C

Request: Determine its reported melting point: "C=C(C)Cc1cc(C=O)cc(OCC)c1O"
Response: 85 to 86 °C

Request: Query melting point for "Cc1ccc(CNC(=S)NCCO)c(C)c1"
Response: 101 to 103 °C

Request: Please report melting point for the following compound: "O=C(NCC/C=C\CCCNC(=O)c1ccc(OC(F)(F)F)cc1)c1ccc(OC(F)(F)F)cc1"
Response: 111 to 113 °C

Request: Retrieve melting point measured for CC#Cc1cn(C2CC(OC(C)=O)C(COC(C)=O)O2)c(=O)[nH]c1=O (centres undefined) and print it.
Response: 148 to 149 °C
